# MIC of antifungal in combination with KKOO-NH2 values compiled below
tested on: Cn MRL862; type: cell-based, Cryptococcus neoformans; settings: +0 μg/mL KKOO-NH2 (control); RPMI1640, 37 °C, 48 h
Field: numeric (µg/mL). Do not append units.

Compound	Quantitative Readout
CC[C@H](C)C[C@H](C)CCCCCCCCC(=O)N[C@H]1C[C@@H](O)[C@@H](NCCN)NC(=O)[C@@H]2[C@@H](O)CCN2C(=O)[C@H]([C@H](O)CCN)NC(=O)[C@H]([C@H](O)[C@@H](O)c2ccc(O)cc2)NC(=O)[C@@H]2C[C@@H](O)CN2C(=O)[C@H]([C@@H](C)O)NC1=O	16
C[C@@H]1[C@H](O)[C@@H](C)/C=C/C=C/C=C/C=C/C=C/C=C/C=C/[C@H](O[C@@H]2O[C@H](C)[C@@H](O)[C@H](N)[C@@H]2O)C[C@@H]2O[C@](O)(C[C@@H](O)C[C@@H](O)[C@H](O)CC[C@@H](O)C[C@@H](O)CC(=O)O[C@H]1C)C[C@H](O)[C@H]2C(=O)O	0.25
CCC(C)n1ncn(-c2ccc(N3CCN(c4ccc(OCC5COC(Cn6cncn6)(c6ccc(Cl)cc6Cl)O5)cc4)CC3)cc2)c1=O (stereo not shown)	0.062

Field MIC of antifungal in combination with KKOO-NH2 (system: Cn MRL862) for entry OC(Cn1cncn1)(Cn1cncn1)c1ccc(F)cc1F = 32

====

system: A. fumigatus AF293; experiment: Drug synergy (MIC in peptide-supplemented media); format: cell-based, Aspergillus fumigatus; conditions: +0 μg/mL KKOO (control); RPMI1640, 37 °C, 48 h; CAS: paradoxical growth, MIC = <20% growth
# MIC of antifungal in combination with KKOO values compiled below
Field: numeric (µg/mL). Do not append units.

Answered examples (2):
Compound	Quantitative Readout
CCC(C)n1ncn(-c2ccc(N3CCN(c4ccc(OCC5COC(Cn6cncn6)(c6ccc(Cl)cc6Cl)O5)cc4)CC3)cc2)c1=O (stereo not shown) [ITR, itraconazole]	0.125
CC[C@H](C)C[C@H](C)CCCCCCCCC(=O)N[C@H]1C[C@@H](O)[C@@H](NCCN)NC(=O)[C@@H]2[C@@H](O)CCN2C(=O)[C@H]([C@H](O)CCN)NC(=O)[C@H]([C@H](O)[C@@H](O)c2ccc(O)cc2)NC(=O)[C@@H]2C[C@@H](O)CN2C(=O)[C@H]([C@@H](C)O)NC1=O [CAS, caspofungin]	0.125

Next:
Sample C[C@@H]1[C@H](O)[C@@H](C)/C=C/C=C/C=C/C=C/C=C/C=C/C=C/[C@H](O[C@@H]2O[C@H](C)[C@@H](O)[C@H](N)[C@@H]2O)C[C@@H]2O[C@](O)(C[C@@H](O)C[C@@H](O)[C@H](O)CC[C@@H](O)C[C@@H](O)CC(=O)O[C@H]1C)C[C@H](O)[C@H]2C(=O)O [AMB, amphotericin B] ; MIC of antifungal in combination with KKOO observed: 1

====

# MIC of antifungal in combination with KKOO values compiled below
Test system: C. albicans SC5413
Type: cell-based, Candida albicans
Conditions: +1 μg/mL KKOO; RPMI1640, 37 °C, 48 h; azole MICs unclear (intermediate phenotype)
Description: All microdilution assays with fungi were carried out in accordance with CLSI protocols from M27 for yeasts and M38 for filamentous fungi, respectively, unless otherwise specified.[64],[65] Briefly, 96-well plates were charged with RPMI1640 media, with operating volume in the first column, 200 μL, and half operating volume, 100 μL, in the remaining wells. Drug stock solution in DMSO was aliquoted into the first well in each row. […]
Field: numeric (µg/mL). Do not append units.

Smiles Code	Quantitative Readout
C[C@@H]1[C@H](O)[C@@H](C)/C=C/C=C/C=C/C=C/C=C/C=C/C=C/[C@H](O[C@@H]2O[C@H](C)[C@@H](O)[C@H](N)[C@@H]2O)C[C@@H]2O[C@](O)(C[C@@H](O)C[C@@H](O)[C@H](O)CC[C@@H](O)C[C@@H](O)CC(=O)O[C@H]1C)C[C@H](O)[C@H]2C(=O)O	0.5

Next:
Sample CC[C@H](C)C[C@H](C)CCCCCCCCC(=O)N[C@H]1C[C@@H](O)[C@@H](NCCN)NC(=O)[C@@H]2[C@@H](O)CCN2C(=O)[C@H]([C@H](O)CCN)NC(=O)[C@H]([C@H](O)[C@@H](O)c2ccc(O)cc2)NC(=O)[C@@H]2C[C@@H](O)CN2C(=O)[C@H]([C@@H](C)O)NC1=O ; MIC of antifungal in combination with KKOO observed: 0.5

Source listed as paper PMC11555678.
